The origin of these recorded values is the supplement of paper PMC11061612.

- Tested on: RT4 (Bladder Carcinoma);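 note: after 72 h of two-drug dosing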
- Assay remarks: Bliss excess, mean over the matrix (fraction); higher = more synergy
Observable: Bliss excess
Answer with a number only.

Record excerpt, results attached:
CS(=O)(=O)CCNCc1ccc(-c2ccc3ncnc(Nc4ccc(OCc5cccc(F)c5)c(Cl)c4)c3c2)o1 [Lapatinib] + C[C@@H](Oc1cc(-c2cnn(C3CCNCC3)c2)cnc1N)c1c(Cl)ccc(F)c1Cl [Crizotinib] (first compound max 10 µM, 7x7, partner max 10 µM) ... -0.0511
C[C@@H](c1ccc2nccn2c1)n1nnc2ncc(-c3cnn(C)c3)nc21 [Savolitinib] + Cc1c2c(nn1C)CSCc1cc(n(C)n1)CSc1cc(c3ccccc3c1)OCCCc1c(C(=O)O)n(C)c3c-2c(Cl)ccc13 [AZD5991] (first compound max 1 µM, 7x7, partner max 1 µM) ... 0.0148
CN(CCO)CC[C@H](CSc1ccccc1)Nc1ccc(S(=O)(=O)NC(=O)c2ccc(N3CCC([C@@H](O)c4ccccc4-c4ccc(Cl)cc4)CC3)cc2)cc1S(=O)(=O)C(F)(F)F [AZD4320] + CCN(CCO)CCCOc1ccc2c(Nc3cc(CC(=O)Nc4cccc(F)c4)[nH]n3)ncnc2c1 [AZD2811] (first compound max 1 µM, 7x7, partner max 1 µM) ... 0.163

Exercise: Consider the molecule shown here: CC1(C)CCC(CN2CCN(c3ccc(C(=O)NS(=O)(=O)c4ccc(NCC5CCOCC5)c([N+](=O)[O-])c4)c(Oc4cnc5[nH]ccc5c4)c3)CC2)=C(c2ccc(Cl)cc2)C1 [Venetoclax] + CN(C)CCCOc1ccc(-c2ccc3ncc4c(c3c2)n(C2CCOCC2)c(=O)n4C)cn1 [AZD0156] (first compound max 1 µM, 7x7, partner max 1 µM) What is its recorded Bliss excess?
Key: -0.0259

Exercise: Next: C[C@@H](c1ccc2nccn2c1)n1nnc2ncc(-c3cnn(C)c3)nc21 [Savolitinib] + CN(CC[C@H](CSC1=CC=CC=C1)NC2=C(C=C(C=C2)S(=O)(=O)NC(=O)C3=CC=C(C=C3)N4CCC(CC4)[C@H](C5=CC=CC=C5C6=CC=C(C=C6)Cl)O)S(=O)(=O)C(F)(F)F)CCO [AZD4320] (first compound max 1 µM, 7x7, partner max 1 µM)
Key: -0.0284

Exercise: Next: COc1cccc(OCCCN)c1-c1cc(Nc2cnc(C#N)cn2)n[nH]1 [Prexasertib] + CCc1c2c(nc3ccc(O)cc13)-c1cc3c(c(=O)n1C2)COC(=O)[C@]3(O)CC [SN-38] (first compound max 1 µM, 7x7, partner max 0.3 µM)
Key: -0.0055
